Value source: PubChem BioAssay AID1159580

# testSummary: chemical genetic growth profiling, strain panel (AID 1159580);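 also: tested at 20 µM; growth read once vehicle control cultures reached saturation at 30 °C; 1 = growth at the plate median or of vehicle wells; lower values mean less growth of the strain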
# studyConditions: S. cerevisiae deletion strains, growth OD, locus YAL013W, strain DEP1
About 2,000 (36%) of roughly 5,500 compounds were called active. Inconclusive results (about 18%) are left out. Rule as the data show it: active = normalized growth mostly below about 0.91 (no sharp cut-off); inconclusive = no clear call, values can overlap the other calls; inactive = mostly above about 0.92. This is one part of the list.
Respond with a class label; see class 1 for active, class 0 for inactive

What call does the record list for N#Cc1ccc([N+](=O)[O-])s1 ?
class 1

What call does the record list for c1ccc(Sc2c(-c3ccccc3)nc3ccccn23)cc1 ?
class 1

What call does the record list for NCC(=O)CCC(=O)O ?
class 0

What call does the record list for C#CCOS(=O)OC1CCCCC1Oc1ccc(C(C)(C)C)cc1 (stereo not given) ?
class 0

What call does the record list for CCn1cc(C(=O)O)c(=O)c2cc(F)c(N3CCNCC3)cc21 ?
class 0

What call does the record list for CCCCCn1c(Sc2ncc([N+](=O)[O-])s2)n[nH]c1=O ?
class 1

What call does the record list for COc1cccc(-c2cc(=O)c3ccc(OC)cc3o2)c1 ?
class 0

What call does the record list for COC(=O)c1ccc(Cl)cc1N(Cc1ccccc1)S(C)(=O)=O ?
class 0

What call does the record list for Cc1cc2cc3c(C)cc(=O)oc3c(C)c2o1 ?
class 0

What call does the record list for Cc1ccc(C(=O)c2ccccc2[N+](=O)[O-])cc1 ?
class 0

What call does the record list for CC(C)c1ccc2c(c1O)CC[C@H]1C3=C(CC[C@]21C)C(=O)OC3 ?
class 1

What call does the record list for N#CC1COc2ccccc2O1 (stereo not given) ?
class 0

What call does the record list for CC(=O)O.CC(=O)O.[Cd] ?
class 1

What call does the record list for Nc1nc(N)c2nc(-c3ccccc3)c(N)nc2n1 ?
class 0

What call does the record list for O=C(NNC(=O)c1ccccc1[N+](=O)[O-])c1ccc(Cl)cc1 ?
class 0

What call does the record list for OC1C(O)C(O)C(O)C(O)C1O (stereo not given) ?
class 0

What call does the record list for Cc1cc(C(F)(F)F)c(C#N)c(=O)[nH]1 ?
class 0

What call does the record list for NS(=O)(=O)c1cc2c(cc1C(F)(F)F)NCNS2(=O)=O ?
class 0

What call does the record list for Cn1nnnc1SCC1=C(C(=O)O)N2C(=O)C(NC(=O)C(O)c3ccccc3)C2SC1 (stereo not given) ?
class 0

What call does the record list for COc1ccc(-c2coc3cc(O)cc(O)c3c2=O)cc1 ?
class 1

What call does the record list for CC(N)Cc1c[nH]c2ccc(OCc3cccs3)cc12 (stereo not given) ?
class 0

What call does the record list for CC(=O)Oc1cc(-c2coc3cc(OC(C)=O)c(OC(C)=O)c(OC(C)=O)c3c2=O)cc(OC(C)=O)c1OC(C)=O ?
class 1

What call does the record list for CCN(CCCCOC(=O)c1ccc(OC)c(OC)c1)C(C)Cc1ccc(OC)cc1 (stereo not given) ?
class 0

What call does the record list for CC(C)C[C@H](NC(=O)C1OC1C(=O)O)C(=O)NCCCCN=C(N)N (stereo not given in full) ?
class 0

What call does the record list for COc1ccc(-c2cc(=O)c3c(OC(C)=O)cc(OC(C)=O)cc3o2)cc1 ?
class 0

* * *

# testSummary: chemical genetic growth profiling, strain panel (AID 1159580);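 also: tested at 20 µM; growth read once vehicle control cultures reached saturation at 30 °C; 1 = growth at the plate median or of vehicle wells; lower values mean less growth of the strain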
# studyConditions: S. cerevisiae deletion strains, growth OD, locus YER111C, strain swi4
Screen size: about 5,500 compounds; about 2,000 (36%) were called active. About 18% were inconclusive and are not listed. Cut-off read from the data, not from the text of the source: active = normalized growth mostly below about 0.91 (no sharp cut-off); inconclusive = no clear call, values can overlap the other calls; inactive = mostly above about 0.92. The list shows a part of the results.
Respond with a class label; see 1 (yes) = active, 0 (no) = inactive

What call does the record list for CC(C)(O)[C@@H]1CC[C@](C)([C@H]2[C@@H](O)C[C@@]3(C)C4C[C@H](O[C@@H]5O[C@H](CO)[C@@H](O)[C@H](O)[C@H]5O)C5C(C)(C)[C@@H](O[C@@H]6OC[C@@H](O)[C@H](O)[C@H]6O)CC[C@@]56C[C@@]46CC[C@]23C)O1 (stereo partly specified) ?
0 (no)

What call does the record list for COc1cc2c3cc1Oc1cc(ccc1O)C[C@@H]1c4c(cc(OC)c(O)c4Oc4ccc(cc4)C[C@@H]3N(C)CC2)CC[N+]1(C)C ?
0 (no)

What call does the record list for O=c1c2ccccc2[se]n1-c1ccccc1 ?
0 (no)

What call does the record list for CC(=O)O[C@H]1C[C@H](O[C@H]2[C@@H](O)C[C@H](O[C@H]3[C@@H](O)C[C@H](O[C@H]4CC[C@@]5(C)C(CCC6C5C[C@@H](O)[C@]5(C)[C@@H](C7=CC(=O)OC7)CC[C@]65O)C4)O[C@@H]3C)O[C@@H]2C)O[C@H](C)[C@H]1O[C@@H]1O[C@H](CO)[C@@H](O)[C@H](O)[C@H]1O (stereo partly specified) ?
0 (no)

What call does the record list for CC(C)c1ccc2c(c1O)CC[C@H]1C3=C(CC[C@]21C)C(=O)OC3 ?
0 (no)

What call does the record list for C[C@@H]1CC[C@@]2(OC1)OC1C(O)C3C4CC[C@H]5C[C@H](O[C@@H]6O[C@H](CO)[C@H](O[C@@H]7O[C@H](CO)[C@@H](O)[C@H](O[C@@H]8OC[C@@H](O)[C@H](O)[C@H]8O)[C@H]7O[C@@H]7O[C@H](CO)[C@H](O)[C@H](O[C@@H]8O[C@H](CO)[C@@H](O)[C@H](O)[C@H]8O)[C@H]7O)[C@H](O)[C@H]6O)[C@H](O)C[C@]5(C)C4CC[C@]3(C)C1[C@@H]2C (stereo partly specified) ?
1 (yes)
